pIC50: −log10 of the molar value.
Consider the following pIC50 values measured on GRK5 (Homo sapiens, UniProt P34947).
Sequence (P34947 whole entry): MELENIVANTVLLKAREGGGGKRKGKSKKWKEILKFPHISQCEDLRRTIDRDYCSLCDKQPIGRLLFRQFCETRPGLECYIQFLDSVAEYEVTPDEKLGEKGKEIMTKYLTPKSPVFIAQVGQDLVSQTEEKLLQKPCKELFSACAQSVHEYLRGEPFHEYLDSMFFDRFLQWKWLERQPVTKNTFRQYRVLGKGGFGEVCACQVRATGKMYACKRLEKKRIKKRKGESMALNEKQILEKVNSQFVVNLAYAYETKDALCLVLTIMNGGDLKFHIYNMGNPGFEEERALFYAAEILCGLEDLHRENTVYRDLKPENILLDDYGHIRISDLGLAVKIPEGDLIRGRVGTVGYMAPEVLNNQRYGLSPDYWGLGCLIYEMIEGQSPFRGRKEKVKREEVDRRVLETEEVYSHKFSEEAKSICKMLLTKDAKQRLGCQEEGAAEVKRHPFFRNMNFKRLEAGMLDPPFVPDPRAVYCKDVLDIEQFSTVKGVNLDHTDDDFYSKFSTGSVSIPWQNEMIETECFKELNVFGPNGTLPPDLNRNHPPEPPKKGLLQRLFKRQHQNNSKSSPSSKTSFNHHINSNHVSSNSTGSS

compound=COc1ccc([C@@H](C)NC(=O)/C=C/c2c[nH]c3ncc(-c4ccc(CN5CCOCC5)cc4)cc23)cc1OC meas_value="≥ 7.30"
compound=COc1ccc([C@@H](C)NC(=O)/C(C#N)=C/c2c[nH]c3ncc(-c4ccc(F)c(S(C)(=O)=O)c4)c(C)c23)cc1OC meas_value="6.00 to 6.30"
compound=COc1ccc([C@@H](C)NC(=O)/C(C#N)=C/c2c[nH]c3ncc(-c4cnn5ccccc45)cc23)cc1OC meas_value="≥ 7.30"
compound=COc1ccc([C@@H](C)NC(=O)/C=C/c2c[nH]c3ncc(-c4cnn(CCN5CCOCC5)c4)cc23)cc1OC meas_value="≥ 7.30"
compound=COc1ccc([C@@H](C)NC(=O)/C=C/c2c[nH]c3ncc(-c4cccc(C#N)c4)cc23)cc1OC meas_value="≥ 7.30"

Tested system GRK5 (Homo sapiens, UniProt P34947); pIC50 recorded for COc1ccc([C@@H](C)NC(=O)C(C#N)=Cc2c[nH]c3ncc(-c4ccc(CCN(C)C)cc4)cc23)cc1OC (stereo in doubt) was ≥ 7.30

Tested system GRK5 (Homo sapiens, UniProt P34947); pIC50 recorded for COc1ccc([C@@H](C)NC(=O)/C(C#N)=C/c2c[nH]c3ncc(-c4cccc(CN5CCN(C)CC5)c4)cc23)cc1OC was ≥ 7.30

Tested system GRK5 (Homo sapiens, UniProt P34947); pIC50 recorded for COc1ccc([C@@H](C)NC(=O)/C(C#N)=C/c2c[nH]c3nc(Br)ccc23)cc1OC was 6.30 to 7.00

Tested system GRK5 (Homo sapiens, UniProt P34947); pIC50 recorded for COc1ccc([C@@H](C)NC(=O)/C=C/c2c[nH]c3ncc(-c4cncc(S(C)(=O)=O)c4)cc23)cc1OC was ≥ 7.30

Tested system GRK5 (Homo sapiens, UniProt P34947); pIC50 recorded for C[C@@H](NC(=O)/C(C#N)=C/c1c[nH]c2ncc(-c3cnn(C)c3)cc12)c1ccc(F)cc1 was ≥ 7.30

* * *

system.tested: GRK5 (Homo sapiens, UniProt P34947)
pIC50: −log10 of the molar value.
# pIC50 values compiled below

Guide cases for pIC50, answers given:
compound=CS(=O)(=O)Nc1ccccc1CNC(=O)/C(C#N)=C/c1c[nH]c2ncccc12 meas_value="6.00 to 6.30"
compound=COc1ccc([C@@H](C)NC(=O)/C(C#N)=C/c2c[nH]c3ncc(-c4ccc(C(F)(F)F)cc4)cc23)cc1OC meas_value="5.00 to 6.00"
compound="CN(C)CC(NC(=O)/C(C#N)=C/c1c[nH]c2ncccc12)c1ccccc1 (stereo not shown)" meas_value="6.30 to 7.00"

Attention now turns to another entry.
The compound COc1ccc([C@@H](C)NC(=O)/C=C/c2c[nH]c3ncc(-c4cnn(C5COC5)c4)cc23)cc1OC showed pIC50 equal to ≥ 7.30

* * *

pIC50: −log10 of the molar value.
Consider the following pIC50 values measured on GRK5 (Homo sapiens, UniProt P34947).

molecule="COc1ccc([C@@H](C)NC(=O)/C(C#N)=C/c2c[nH]c3ncc(C4=CCCC4)cc23)cc1OC [Example 158]" metric=pIC50 meas_value="≥ 7.30"
molecule="CN(C)CCC(NC(=O)/C(C#N)=C/c1c[nH]c2ncccc12)c1ccccc1 (stereo not drawn) [Example 48]" metric=pIC50 meas_value="≥ 7.30"
molecule="COc1ccc([C@@H](C)NC(=O)/C(C#N)=C/c2c[nH]c3ncc(-c4cnn(CCN5CCOCC5)c4)cc23)cc1OC [Example 160]" metric=pIC50 meas_value="≥ 7.30"
molecule="COc1ccc([C@@H](C)NC(=O)/C(C#N)=C/c2c[nH]c3ncc(-c4cccc5cnn(C)c45)cc23)cc1OC [Example 150]" metric=pIC50 meas_value="6.00 to 6.30"
molecule="CC[S+]([O-])c1cccc(-c2cnc3[nH]cc(/C=C/C(=O)N[C@H](C)c4ccc(OC)c(OC)c4)c3c2)c1 (stereo partly drawn) [Example 191]" metric=pIC50 meas_value="≥ 7.30"
molecule="COc1ccc([C@@H](C)NC(=O)/C(C#N)=C/c2c[nH]c3ncc(-c4ccc5ccccc5c4)cc23)cc1OC [Example 144]" metric=pIC50 meas_value="6.30 to 7.00"
molecule="COc1ccc([C@@H](C)NC(=O)/C=C/c2c[nH]c3ncc(-c4cccc(CN5CCN(C)CC5)c4)cc23)cc1OC [Example 183]" metric=pIC50 meas_value="≥ 7.30"
molecule="C[C@@H](NC(=O)/C(C#N)=C/c1c[nH]c2ncccc12)c1ccc(F)cc1F [Example 17]" metric=pIC50 meas_value="6.30 to 7.00"

Tested system GRK5 (Homo sapiens, UniProt P34947); pIC50 recorded for COc1ccc([C@@H](C)NC(=O)/C(C#N)=C/c2c[nH]c3ncc(-c4ccc(NC(C)=O)cc4)cc23)cc1OC [Example 142] was ≥ 7.30

Tested system GRK5 (Homo sapiens, UniProt P34947); pIC50 recorded for COc1ccc([C@@H](C)NC(=O)/C(C#N)=C/c2c[nH]c3ncc(Br)cc23)cc1OC [Example 80] was 7.00 to 7.30

Tested system GRK5 (Homo sapiens, UniProt P34947); pIC50 recorded for COc1ccc([C@@H](C)NC(=O)/C=C/c2c[nH]c3ncc(-c4cccc(S(N)(=O)=O)c4)cc23)cc1OC [Example 208] was ≥ 7.30

Tested system GRK5 (Homo sapiens, UniProt P34947); pIC50 recorded for COc1ccc([C@@H](C)NC(=O)/C(C#N)=C/c2c[nH]c3ncc(-c4cn(C)nc4C)cc23)cc1OC [Example 168] was ≥ 7.30

Tested system GRK5 (Homo sapiens, UniProt P34947); pIC50 recorded for COc1ccc([C@@H](C)NC(=O)/C(C#N)=C/c2c[nH]c3ncc(-c4cn[nH]c4)cc23)cc1OC [Example 163] was ≥ 7.30

Tested system GRK5 (Homo sapiens, UniProt P34947); pIC50 recorded for COc1ccc([C@@H](C)NC(=O)/C(C#N)=C/c2c[nH]c3ncc(-c4cnn(C5CCN(C(=O)OC(C)(C)C)CC5)c4)cc23)cc1OC [Example 165] was 7.00 to 7.30

Tested system GRK5 (Homo sapiens, UniProt P34947); pIC50 recorded for CC(NC(=O)/C(C#N)=C/c1c[nH]c2ncccc12)c1ccc(F)cc1 (stereo not drawn) [Example 63] was 6.30 to 7.00

* * *

system.tested: GRK2 (Homo sapiens, UniProt P25098)
Sequence (P25098 1-689): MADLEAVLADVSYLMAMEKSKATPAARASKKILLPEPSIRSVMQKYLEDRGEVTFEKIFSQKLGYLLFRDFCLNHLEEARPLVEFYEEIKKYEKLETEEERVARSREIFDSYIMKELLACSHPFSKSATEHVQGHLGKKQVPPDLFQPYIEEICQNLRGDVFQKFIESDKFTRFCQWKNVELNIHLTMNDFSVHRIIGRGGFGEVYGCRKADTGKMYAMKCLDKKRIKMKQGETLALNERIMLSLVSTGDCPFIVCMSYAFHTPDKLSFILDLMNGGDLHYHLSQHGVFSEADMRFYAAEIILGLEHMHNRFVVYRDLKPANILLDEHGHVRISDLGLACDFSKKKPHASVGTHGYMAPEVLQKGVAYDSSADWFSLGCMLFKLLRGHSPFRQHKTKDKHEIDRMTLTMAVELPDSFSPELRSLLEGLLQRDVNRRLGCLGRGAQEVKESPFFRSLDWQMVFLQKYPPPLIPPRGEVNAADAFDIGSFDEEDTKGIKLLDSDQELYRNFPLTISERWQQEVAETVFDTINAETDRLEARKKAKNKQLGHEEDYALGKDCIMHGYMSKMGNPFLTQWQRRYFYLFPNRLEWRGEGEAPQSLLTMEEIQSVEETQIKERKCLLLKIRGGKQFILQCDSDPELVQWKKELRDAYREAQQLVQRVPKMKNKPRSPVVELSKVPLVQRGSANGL
pIC50: −log10 of the molar value.
metric: pIC50

Guide cases for pIC50, answers given:
compound="O=C(/C=C/c1c[nH]c2ncc(Cl)cc12)NCc1cccc(F)c1 [Example 7]" system_tested="GRK2 (Homo sapiens, UniProt P25098)" meas_value="5.00 to 6.00"
compound="COc1cccc([C@@H](C)NC(=O)/C(C#N)=C/c2c[nH]c3ncccc23)c1 [Example 33]" system_tested="GRK2 (Homo sapiens, UniProt P25098)" meas_value="≥ 7.30"
compound="COc1ccc([C@@H](C)NC(=O)/C=C/c2c[nH]c3ncc(-c4ccc(F)cc4OC)cc23)cc1OC [Example 201]" system_tested="GRK2 (Homo sapiens, UniProt P25098)" meas_value="< 5.00"

The compound COc1ccc([C@@H](C)NC(=O)/C=C/c2c[nH]c3ncc(-c4cccc(S(N)(=O)=O)c4)cc23)cc1OC [Example 208] showed pIC50 equal to 5.00 to 6.00

The compound COc1ccc([C@@H](C)NC(=O)/C=C/c2c[nH]c3ncc(-c4cccc(S(C)(=N)=O)c4)cc23)cc1OC (stereo partly shown) [Example 251] showed pIC50 equal to 6.00 to 6.30

The compound COc1ccc([C@@H](C)NC(=O)/C=C/c2c[nH]c3ncc(-c4cccc(CCN(C)C)c4)cc23)cc1OC [Example 192] showed pIC50 equal to 5.00 to 6.00

The compound C[C@@H](NC(=O)/C(C#N)=C/c1c[nH]c2nccc(Cl)c12)c1ccc(F)cc1 [Example 78] showed pIC50 equal to 6.00 to 6.30
